# Tested on: TK-10 renal
# ASSAY_OVERVIEW: NCI tumour cell line growth inhibition, 48 h
Recorded TGI for the following compounds

**Query** What does the record list as TGI for COCCOC(=O)C1=C(O)c2ccccc2S(=O)(=O)N1C ?
**Result** > 100 µM

**Query** Need TGI of Nc1ncnc2c1ncn2C1C=C(CO)C(O)C1O (stereo unspecified) , thanks.
**Result** > 84.9 µM

**Query** Query: TGI; subject: O=C1/C(=C/C=C/c2ccccc2)CCC1CNc1ccccc1 (stereo unspecified)
**Result** > 74.7 µM

**Query** Give the measured TGI of Cc1cccc(Cl)c1NCC(O)CN1CCN(C)CC1 (stereo unspecified) .
**Result** > 100 µM

**Query** Quick one: TGI for Cc1ccc(-n2[nH]nc(C(N)=O)c2=O)cc1 ?
**Result** > 100 µM

**Query** Which TGI reading was recorded for the compound Cc1ccc(S(=O)(=O)Nc2cccc3c(=O)[nH]cnc23)cc1 ?
**Result** > 100 µM

**Query** State the recorded TGI for this entry: O=C(Nc1ccc(C(F)(F)F)cc1[N+](=O)[O-])C(=O)C1NC(=S)NC1=O (stereo unspecified)
**Result** > 100 µM

**Query** Reported TGI, compound Cc1c(-c2ccccc2)cc(O)c2nc3ccccc3n12 : ____
**Result** > 100 µM

**Query** Look up TGI for this compound: Cc1ccc(S(=O)(=O)OC2CC=CC2)cc1
**Result** > 100 µM

**Query** What value of measured TGI is listed for CC1(C)OCN(c2ccc(N3CCOCC3)cc2)Cn2c1nc1ccccc12 ?
**Result** > 100 µM

**Query** Give the measured TGI of COc1ccc(C2=C[C@]3(O)CCCN3C[C@@H]2c2ccc(OC)c(OC)c2)cc1 .
**Result** 0.611 µM

**Query** What value of TGI has been recorded for this entry: [N-]=[N+]=NCCCn1c2c(c3ccc([N+](=O)[O-])cc3c1=O)C(=O)c1ccccc1-2
**Result** > 100 µM

**Query** Could you share which TGI value was measured for CCN1C[C@]2(C)CC[C@H](O)C34C1C(C[C@@H]32)[C@@]1(O)CC[C@H]2C[C@@H]4[C@@H]1[C@H]2O ?
**Result** > 100 µM

**Query** What value of TGI has been recorded for this entry: COC(=O)c1csc([C@@H](OC(=O)[C@H](C)[C@H](CCCC(C)(Cl)Cl)OC(=O)c2csc([C@H](O)CO)n2)C(C)C)n1
**Result** 24.9 µM
